System: human CD33 R122A (human, UniProt P20138 18-364)
Sequence (P20138 18-364 R122A limits assumed): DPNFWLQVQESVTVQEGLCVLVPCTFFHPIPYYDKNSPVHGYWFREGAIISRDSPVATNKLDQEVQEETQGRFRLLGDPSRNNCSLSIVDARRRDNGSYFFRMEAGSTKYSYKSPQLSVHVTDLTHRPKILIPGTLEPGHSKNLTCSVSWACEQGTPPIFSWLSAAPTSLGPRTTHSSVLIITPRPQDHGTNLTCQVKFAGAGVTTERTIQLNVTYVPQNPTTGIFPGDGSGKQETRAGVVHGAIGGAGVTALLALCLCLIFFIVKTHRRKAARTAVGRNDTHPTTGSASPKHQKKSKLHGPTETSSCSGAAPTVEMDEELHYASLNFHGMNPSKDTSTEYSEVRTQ
Assay comment: flow cytometry on HEK293-T, alanine scan
Measurement label: Mean % WT Binding (% WT binding)
Report the value in % WT binding with no unit label.

Record Refmab #4 (antibody, V domains shown, The alanine scan used IgG or Fab) VH: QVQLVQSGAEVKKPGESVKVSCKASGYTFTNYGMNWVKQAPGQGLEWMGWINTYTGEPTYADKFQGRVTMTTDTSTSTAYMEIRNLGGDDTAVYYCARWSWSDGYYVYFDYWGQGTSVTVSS VL: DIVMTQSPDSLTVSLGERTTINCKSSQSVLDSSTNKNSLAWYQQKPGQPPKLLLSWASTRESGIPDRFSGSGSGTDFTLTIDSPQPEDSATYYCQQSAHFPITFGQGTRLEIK . Reported Mean % WT Binding: 23
